B1: LINE1-full (parent)
chain: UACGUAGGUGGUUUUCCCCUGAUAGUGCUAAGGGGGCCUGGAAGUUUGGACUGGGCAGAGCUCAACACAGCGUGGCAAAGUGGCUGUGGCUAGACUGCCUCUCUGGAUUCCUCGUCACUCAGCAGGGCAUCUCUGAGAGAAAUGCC

Variants of: B1
Assay: self-cleavage, relative activity (ratio to wild type); higher = more cleavage; in vitro, sequencing; the parent is a self-cleaving ribozyme
Measured self-cleavage accompanies every entry in the list below.
Respond using a number only.

self-cleavage for CACGUAGGUGGUUUUCCCCUGAUAGUGCUAAGGGGGCCUGGAAGUUUGGACUGGGCAGAGCUCAACACAGCGUGGCAAAGUGGCUGUGGCUAGACUGCCUCUCUGGAUUCCUCGUCACUCAGCAGGGCAUCUCUGAGAGAAACGCC [U1C U143C] ?
1.18

Param item: UACGUAAGUGGUUUUCCCCUGAUAGUGCUAAGGGGGCCUGGAAGUUUGGACUGGGCAGAGCUCAACACAGCGUGGCAAAGUGGCUGUGGCUAGACUACCUCUCUGGAUUCCUCGUCACUCAGCAGGGCAUCUCUGAGAGAAAUGCC [G7A G97A]
0.1

Repeat for the following variant: UACGUAGGUGGUUUUCCCCUGAUAGUGCUAAGGGGGCCUGGAAGUCUGGACUGGGCAGAGCUCAACACAGUGUGGCAAAGUGGCUGUGGCUAGACUGCCUCUCUGGAUUCCUCGUCACUCAGCAGGGCAUCUCUGAGAGAAAUGCC [U46C C71U]
1.11

Also UACGUAGGUGGUUUUCCCCUGAUAGUGCUAUGGGGGCCUGGAAGUUUGGACUGGGCAGAGCUCAACACAGCGUGGCAGAGUGGCUGUGGCUAGACUGCCUCUCUGGAUUCCUCGUCACUCAGCAGGGCAUCUCUGAGAGAAAUGCC [A31U A78G] , if possible.
0.94

Now give it for UACGUAGGUGGUUUUCCCCUGAUAGUGCUAAGGGGGCCUGGAAGUUUGGACUGGGCAGAGCUCAACACAGCGUGGCAAAGUGGCUGUGGCUAGACUGCCUCUCUGGAUUCCUCGUCACUCUGCAGGGCAUCUCUGAGAGAAAUACC [A121U G144A] too.
1.86

Same read-out for UACGUAGGUGGUUUUCCCCUGAUAGUGCUAAGGGGGCCUGGAAGUUUGGAUUGGGCAGAGCUCAACACAGCGUGGCAAAGUGGCUGUGGCUAGACUGCCUCUCUGGAUUCCUCGUCACUCAGCAGGGCUUCUCUGAGAGAAAUGCC [C51U A129U] ?
1.63

Follow-up entry: UACGUAGGUGGUUUUCCCCUGAUAGUGCUAAGGGGGCCUGGAAGUUUGGACUGGGCAGAGCUCAACACAGCGUGGCAAAGUGGCUGUGGCUAGACUGCCUCUCAGGAUUCCUCGUCACUCAGCUGGGCAUCUCUGAGAGAAAUGCC [U104A A124U]
1.25

What do you get for UACGUAGGUGGUUUUCCCCUGAUAGUGCUAAGGGGGCCUGGAAGUUUGGACUGGGCAGAGCUCAACAUAGCGUGGCAAAGUGGCUGUGGCUAGACUGCCUCUCUGGGUUCCUCGUCACUCAGCAGGGCAUCUCUGAGAGAAAUGCC [C68U A107G] ?
0.12

Field entry: UACGUAGGUGGCUUUCCCCUGAUAGUGCUAGGGGGGCCUGGAAGUUUGGACUGGGCAGAGCUCAACACAGCGUGGCAAAGUGGCUGUGGCUAGACUGCCUCUCUGGAUUCCUCGUCACUCAGCAGGGCAUCUCUGAGAGAAAUGCC [U12C A31G]
1.24

Also UACGUAGGUGGUUUUCCCCUGAUAGUGCUAAGGGGGCCUGGAAGUUUGGACUGGGCAGAGCUCAACACAGCGUGGCAAAGUAGCUGUGGCUAGACUGCCUCUCUGGAUUCCUCGUCACUCAGCAGGGCAUCUCGGAGAGAAAUGCC [G82A U134G] , if possible.
1.08

Would you mind doing UACGUAGGUGAUUUUCCCCUGAUAGUGCUAAGGGGGCCUGGAAGUUUGGACCGGGCAGAGCUCAACACAGCGUGGCAAAGUGGCUGUGGCUAGACUGCCUCUCUGGAUUCCUCGUCACUCAGCAGGGCAUCUCUGAGAGAAAUGCC [G11A U52C] as well?
1.41
